# METHOD DESCRIPTION: physchem
# CONDITION DESCRIPTION: phosphate buffer, pH 5
# Description: Solubility in phosphate buffer at pH 5.0
QUANTITY: log10 solubility (log10 of the value in µM)
Reminder: these figures are log10 of reported solubility, in µM before transformation.

Here are 5 compounds together with their reported answers.
In [3]: df
Out[3]:
                           smiles_structure  obs_value
0  CCCCc1oc2ccccc2c1C(=O)c1cc(I)c(OCCN2CCOCC2)c(I)c1       2.23
1  CCCCc1oc2ccccc2c1C(=O)c1cc(I)c(OCCN(C(C)C)C(C)C)c(I)c1       2.36
2  CCCCc1oc2ccccc2c1C(=O)c1cc(I)c(OCCN(C)C)c(I)c1       3.34
3  CCCCc1oc2ccccc2c1C(=O)c1cc(I)c(OCCN2CCCC2)c(I)c1       3.27
4  CCCCc1oc2ccccc2c1C(=O)c1cc(I)c(OCCN2CCCCC2)c(I)c1       3.35

// log10 solubility lookup, key: "CCCCc1oc2ccccc2c1C(=O)c1cc(I)c(OCCCN(C)C)c(I)c1"
3.02

* * *

# METHOD DESCRIPTION: physchem
# CONDITION DESCRIPTION: phosphate buffer, pH 7.5
# Description: Lipophilicity in phosphate buffer at pH 7.5
QUANTITY: logD
Give bare numbers.

>>> print(df.to_string())
                           smiles_structure  quantity  obs_value
0  CCCCc1oc2ccccc2c1C(=O)c1cc(I)c(OCCN2CCCC2)c(I)c1      logD       7.82
1  CCCCc1oc2ccccc2c1C(=O)c1cc(I)c(OCCN(C)C)c(I)c1      logD       7.15
2  CCCCc1oc2ccccc2c1C(=O)c1cc(I)c(OCCN(C(C)C)C(C)C)c(I)c1      logD       8.74
3  CCCCc1oc2ccccc2c1C(=O)c1cc(I)c(OCCCN(C)C)c(I)c1      logD       7.98
4  CCCCc1oc2ccccc2c1C(=O)c1cc(I)c(OCCN2CCCCC2)c(I)c1      logD       8.04

# evaluate next
Which logD value belongs to "CCCCc1oc2ccccc2c1C(=O)c1cc(I)c(OCCN2CCOCC2)c(I)c1" ?
6.15

* * *

What solubility was measured for each of the following?
# METHOD DESCRIPTION: physchem
# CONDITION DESCRIPTION: phosphate buffer, pH 7.4
# Description: Solubility in phosphate buffer at pH 7.4
One number for each entry, in µM.

Please review the entries below; each comes with its answer.
>>> print(df.to_string())
                           smiles_structure    quantity  obs_value
0  CCCCc1oc2ccccc2c1C(=O)c1cc(I)c(OCCN(C)C)c(I)c1  solubility         51
1  CCCCc1oc2ccccc2c1C(=O)c1cc(I)c(OCCN2CCCC2)c(I)c1  solubility         49
2  CCCCc1oc2ccccc2c1C(=O)c1cc(I)c(OCCCN(C)C)c(I)c1  solubility        212
3  CCCCc1oc2ccccc2c1C(=O)c1cc(I)c(OCCN2CCCCC2)c(I)c1  solubility         23
4  CCCCc1oc2ccccc2c1C(=O)c1cc(I)c(OCCN(C(C)C)C(C)C)c(I)c1  solubility         14

Entry "CCCCc1oc2ccccc2c1C(=O)c1cc(I)c(OCCN2CCOCC2)c(I)c1" : reported solubility = ?
15

The reported numbers originate from ChEMBL document CHEMBL1147205.
